Molecular target: His-tagged CRBN-DDB1 complex (Homo sapiens)
Sequence (Q96SW2 whole entry): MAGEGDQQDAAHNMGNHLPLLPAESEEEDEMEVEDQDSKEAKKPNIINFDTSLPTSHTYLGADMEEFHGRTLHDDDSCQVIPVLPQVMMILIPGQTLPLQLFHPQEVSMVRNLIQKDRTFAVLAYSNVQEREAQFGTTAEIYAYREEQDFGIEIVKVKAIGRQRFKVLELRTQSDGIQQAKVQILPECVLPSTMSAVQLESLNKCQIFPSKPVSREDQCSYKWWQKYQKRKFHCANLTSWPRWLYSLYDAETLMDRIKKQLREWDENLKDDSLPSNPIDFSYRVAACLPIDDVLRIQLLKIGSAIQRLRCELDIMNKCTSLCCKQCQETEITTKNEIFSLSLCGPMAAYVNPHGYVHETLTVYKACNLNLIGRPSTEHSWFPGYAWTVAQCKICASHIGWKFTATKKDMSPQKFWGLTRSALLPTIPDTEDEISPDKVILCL
Sequence (Q16531 whole entry partner): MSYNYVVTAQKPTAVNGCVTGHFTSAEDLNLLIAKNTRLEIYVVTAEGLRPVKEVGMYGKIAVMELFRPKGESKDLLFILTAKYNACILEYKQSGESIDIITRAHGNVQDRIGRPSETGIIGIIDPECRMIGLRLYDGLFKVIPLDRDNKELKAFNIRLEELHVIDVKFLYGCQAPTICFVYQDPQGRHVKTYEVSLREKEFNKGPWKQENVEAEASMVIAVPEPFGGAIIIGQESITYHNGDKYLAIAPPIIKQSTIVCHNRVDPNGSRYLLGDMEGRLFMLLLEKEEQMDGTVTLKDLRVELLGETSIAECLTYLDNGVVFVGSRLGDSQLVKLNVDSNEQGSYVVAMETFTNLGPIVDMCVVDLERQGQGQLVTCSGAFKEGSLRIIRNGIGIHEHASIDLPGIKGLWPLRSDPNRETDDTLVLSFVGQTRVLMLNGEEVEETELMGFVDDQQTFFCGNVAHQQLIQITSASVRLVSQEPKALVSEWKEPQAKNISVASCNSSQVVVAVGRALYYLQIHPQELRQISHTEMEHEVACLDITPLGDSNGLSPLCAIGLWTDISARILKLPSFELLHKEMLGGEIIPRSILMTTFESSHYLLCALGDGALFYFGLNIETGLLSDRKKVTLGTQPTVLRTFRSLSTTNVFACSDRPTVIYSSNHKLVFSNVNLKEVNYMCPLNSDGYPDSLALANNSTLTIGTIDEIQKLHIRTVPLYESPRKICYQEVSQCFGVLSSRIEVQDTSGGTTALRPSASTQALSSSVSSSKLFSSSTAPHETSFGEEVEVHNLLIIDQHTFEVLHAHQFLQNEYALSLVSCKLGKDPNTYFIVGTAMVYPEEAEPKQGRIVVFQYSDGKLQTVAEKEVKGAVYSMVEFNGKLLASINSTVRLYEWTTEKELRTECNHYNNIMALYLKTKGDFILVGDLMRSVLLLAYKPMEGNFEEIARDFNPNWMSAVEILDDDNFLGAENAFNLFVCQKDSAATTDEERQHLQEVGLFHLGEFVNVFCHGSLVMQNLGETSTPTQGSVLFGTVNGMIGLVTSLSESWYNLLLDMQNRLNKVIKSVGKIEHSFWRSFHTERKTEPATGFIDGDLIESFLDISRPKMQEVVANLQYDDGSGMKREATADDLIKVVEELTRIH
Assay: Time-Resolved Fluorescence Resonance Energy Transfer (TR-FRET / HTRF) CRBN binding assay, displacement of Cy5-labeled thalidomide
Conditions: His-CRBN-DDB1, Cy5-thalidomide 8 nM, 1 hour room temperature
Below, each entry is listed with its recorded IC50.

| molecule | IC50 |
| --- | --- |
| O=C1CC2(CCN(Cc3c[nH]c4ccccc34)CC2)CC(=O)N1 | > 100 µM |
| Nc1ccccc1-c1ccc2c(c1)C(=O)NC(=O)C2 | > 100 µM |
| O=Cc1ccc(N2CCC3(CC2)CC(=O)NC(=O)C3)cc1 | > 100 µM |
| O=C1NC(=O)[C@@H]2CN(c3cccc(O)c3)C[C@H]12 | > 100 µM |

Bench note: what IC50 did O=C1NC(=O)[C@@H]2CN(C(=O)c3coc(COc4ccc5c(c4)OCO5)n3)C[C@H]12 show?
30 to 100 µM

Bench note: what IC50 did O=C1Cc2cnn(Cc3ccccc3)c2C(=O)N1 show?
> 100 µM

Bench note: what IC50 did O=C1CC2(CCN(C(=O)c3cccnn3)CC2)CC(=O)N1 show?
> 100 µM

Bench note: what IC50 did CC(C1CC1)N1C[C@@H]2C(=O)NC(=O)[C@@H]2C1 (stereo partly drawn) show?
> 100 µM

Bench note: what IC50 did O=C1CC2(CCN(Cc3ccc(-c4ccccc4)cc3)CC2)CC(=O)N1 show?
> 100 µM
